src = ChEMBL document CHEMBL4840350

Assay: Cmax in CD-1 mouse at 60 mg/kg, po administered as repeated dose measured at day 4 by LC-MS/MS analysis
Type: ADME, organism-based
Parameters: route oral, dose 60 mg/kg, time 4 day
Settings: in vivo
Measure: Cmax

Quick one: Cmax for "Cc1cc(F)ccc1-c1cc2c(cn1)ncn2-c1ccc(OC(F)F)cc1" ? 2680 ng/mL

---

Assay: Dose normalized AUC (0 to 8 hrs) in CD-1 mouse at 3 mg/kg, po administered as single dose measured over 24 hrs by LC-MS/MS analysis
Type: ADME, organism-based
Details: in vivo
Measure: AUC/dose (ng·h/mL per mg/kg)
Only the number, expressed in ng·h/mL per mg/kg, is required.

# query: AUC/dose of entry "Cc1cc(F)ccc1-c1cc2c(cn1)ncn2-c1ccc(OC(F)F)cc1" 121

---

Assay: Stability in mouse liver S9 fraction assessed as half life at 3 uM measured upto 45 mins in presence of NADPH and UDPGA by LC-MS/MS analysis
Assay type: ADME, subcellular
Measure: half-life at […], 3 µM (min)
Return type: number; implicit unit min.

Look up half-life at […], 3 µM for this compound: "COc1ccc(Cn2cnc3cnc(Nc4cccc(NC(C)=O)c4)cc32)cc1OC" 42

---

Assay: Dose normalized AUC (0 to 8 hrs) in CD-1 mouse at 60 mg/kg, po administered as repeated dose measured at day 4 by LC-MS/MS analysis
Type: ADME, organism-based
Details: in vivo, 96 h, time 4 day
Measure: AUC/dose (ng·h/mL per mg/kg)
Report only the number, with the unit ng·h/mL per mg/kg understood.

State the recorded AUC/dose for this entry: "Cc1cc(F)ccc1-c1cc2c(cn1)ncn2-c1ccc(OC(F)F)cc1" 154

---

Test: Elimination half-life in CD-1 mouse at 60 mg/kg, po administered as repeated dose measured at day 4 by LC-MS/MS analysis
Assay type: ADME, organism-based
Details: in vivo, time 4 day, read-out: beta t1/2 (converted)
Measure: half-life (h)
# value in h; strip the unit string

Dear colleague, I am looking for the recorded half-life of the following compound: "Cc1cc(F)ccc1-c1cc2c(cn1)ncn2-c1ccc(OC(F)F)cc1" 8.1

---

Experiment: Dose normalized AUC (0 to 8 hrs) in CD-1 mouse at 60 mg/kg, po administered as repeated dose measured at day 1 by LC-MS/MS analysis
Format: ADME, organism-based
Details: in vivo, 24 h, time 1 day
Measure: AUC/dose (ng·h/mL per mg/kg)
The reply should be a number in ng·h/mL per mg/kg, with the unit left off.

Requested field: AUC/dose. Item: "Cc1cc(F)ccc1-c1cc2c(cn1)ncn2-c1ccc(OC(F)F)cc1" 164

---

Assay: AUC(0 to 8 hrs) in CD-1 mouse at 60 mg/kg, po administered as repeated dose measured at day 1 by LC-MS/MS analysis
Format: ADME, organism-based
Design: route oral, dose 60 mg/kg, time 1 day
Conditions: in vivo
Measure: AUC(0-t) at 24 h (ng·h/mL)
Reply numerically in ng·h/mL, unit not repeated.

Which AUC(0-t) at 24 h is listed for "Cc1cc(F)ccc1-c1cc2c(cn1)ncn2-c1ccc(OC(F)F)cc1" ? 9860

---

Assay: Apparent permeability of compound in human Caco2 cells at 10 uM incubated for 120 mins by LC-MS/MS analysis
Type: ADME, cell-based
Details: Caco-2
Measure: Papp at 2 h, 10 µM (×10⁻⁶ cm/s)
The answer is to be given in ×10⁻⁶ cm/s; state only the numeric part.

Dear colleague, I am looking for the recorded Papp at 2 h, 10 µM of the following molecule: "Cc1cc(F)ccc1-c1cc2c(cn1)ncn2-c1ccc(OC(F)F)cc1" 14
